Provenance of the data: patent US20240285552A1

System: A549 cells
Details: read-out: Cytotoxicity CC50, 72 hours
Residues, ends and D or L forms follow the SMILES beside them. *: point of attachment. Cbz = O=C(OCc1ccccc1)*; CH2F = FC*
reported.metric: CC50

Ask: So what's the measured CC50 for this one? CC(C)C[C@H](NC(=O)OCc1ccccc1)C(=O)N[C@@H](CC(C)C)C(=O)N[C@@H](Cc1ccc(O)cc1)C(=O)CF [Calpain Inhibitor IV] (Cbz-Leu-Leu-Tyr-CH2F)
Result: > 179 nM

====

Measured Conc. at Min. % Viability on A549 cells follows.
Structures can show the parent of a compound that is named as a salt. Residues, ends and D or L forms follow the SMILES beside them. *: point of attachment. Cbz = O=C(OCc1ccccc1)*; CH2F = FC*
One number for each entry, in nM.

Here is how some compounds turned out for Conc. at Min. % Viability.
>>> value_reported("CC(C)C(=O)OC[C@H]1O[C@@H](n2ccc(NO)nc2=O)[C@H](O)[C@@H]1O")
14
>>> value_reported("Nc1c(Br)cc(Br)cc1CN[C@H]1CC[C@H](O)CC1 [AMB, hydrochloride]")
300000
>>> value_reported("CCN(CC)CCCC(C)Nc1ccnc2cc(Cl)ccc12 (centres unmarked)")
30000
>>> value_reported("CC(C)C[C@H](NC(=O)OCc1ccccc1)C(=O)N[C@@H](CC(C)C)C(=O)N[C@@H](Cc1ccc(O)cc1)C(=O)CF [Calpain Inhibitor IV] (Cbz-Leu-Leu-Tyr-CH2F)")
5.6

Below: the item to evaluate.
Ask: Can you share its Conc. at Min. % Viability? I mean this compound: CCC(CC)COC(=O)[C@H](C)N[P@](=O)(OC[C@H]1O[C@@](C#N)(c2ccc3c(N)ncnn23)[C@H](O)[C@@H]1O)Oc1ccccc1
Result: 94
